Tested on: tumor cells from medulloblastoma developed from mice with deficiency in Patched1 gene
Assay: MB assay: survival of medulloblastoma tumor cells by MTT after 48 hours
Format: cell-based
Conditions: Mus musculus, tumor cells treated 48 hours, cell survival by MTT
So I've got a bunch of compounds here, and I need their IC50 values.

Q) Quote IC50 with test system tumor cells from medulloblastoma developed from mice with deficiency in Patched1 gene for CCc1noc(C(C)(C)Cc2c(SC(C)(C)C)c3cc(O)ccc3n2Cc2ccc(Cl)cc2)n1
A) 5 to 10 µM

Q) Quote IC50 with test system tumor cells from medulloblastoma developed from mice with deficiency in Patched1 gene for CCOC(=O)C(C)(C)Cc1c(C(=O)C(C)C)c2cc(C(C)C)ccc2n1Cc1ccc(Cl)cc1
A) > 20 µM

Q) Quote IC50 with test system tumor cells from medulloblastoma developed from mice with deficiency in Patched1 gene for COc1ccc2c(c1)c(-c1ccc(CC(C)C)cc1)c(C)n2Cc1ccccc1Cl
A) > 20 µM

Q) Quote IC50 with test system tumor cells from medulloblastoma developed from mice with deficiency in Patched1 gene for CCOC(=O)C(C)(C)Cc1c(C(=O)C2CCC2)c2cc(C(C)C)ccc2n1Cc1ccc(Cl)cc1
A) > 20 µM

Q) Quote IC50 with test system tumor cells from medulloblastoma developed from mice with deficiency in Patched1 gene for CC(C)c1ccc2c(c1)c(SCC(C)(C)C)c(CC(C)(C)C(=O)O)n2Cc1ccc(Cl)cc1
A) 1 to 5 µM

Q) Quote IC50 with test system tumor cells from medulloblastoma developed from mice with deficiency in Patched1 gene for CC(C)c1ccc2c(c1)c(C(=O)C1CCC1)c(CC(C)(C)C(=O)O)n2Cc1ccc(Cl)cc1
A) 1 to 5 µM

Q) Quote IC50 with test system tumor cells from medulloblastoma developed from mice with deficiency in Patched1 gene for COC(=O)C(C)(C)Cc1nc2cc(OC)ccc2n1Cc1ccccc1Cl
A) > 20 µM

Q) Quote IC50 with test system tumor cells from medulloblastoma developed from mice with deficiency in Patched1 gene for CCOC(=O)C(C)(C)Cc1c(C(=O)c2ccc(Cl)cc2)c2ccc(O)cc2n1CC1CCC1
A) > 20 µM

Q) Quote IC50 with test system tumor cells from medulloblastoma developed from mice with deficiency in Patched1 gene for COc1ccc2c(c1)c(CCC(C)(C)C)c(CC(C)(C)CO)n2Cc1ccc(Cl)cc1
A) 1 to 5 µM

Q) Quote IC50 with test system tumor cells from medulloblastoma developed from mice with deficiency in Patched1 gene for CC(C)c1cnc2c(c1)c(C(=O)C1CCC1)c(CC(C)(C)C(=O)O)n2Cc1ccc(Cl)cc1
A) 10 to 20 µM

Q) Quote IC50 with test system tumor cells from medulloblastoma developed from mice with deficiency in Patched1 gene for CC(C)c1ccc2c(c1)c([S+]([O-])CC(C)(C)C)c(CC(C)(C)C(=O)O)n2Cc1ccc(Cl)cc1 (stereo not shown)
A) > 20 µM

Q) Quote IC50 with test system tumor cells from medulloblastoma developed from mice with deficiency in Patched1 gene for COc1ccc2c(c1)nc(CC(C)(C)C(=O)O)n2Cc1ccccc1Cl
A) > 20 µM

Q) Quote IC50 with test system tumor cells from medulloblastoma developed from mice with deficiency in Patched1 gene for CCOC(=O)C(C)(C)Cc1c(S(=O)(=O)CC(C)(C)C)c2cc(C(C)C)ccc2n1Cc1ccc(Cl)cc1
A) 10 to 20 µM

Q) Quote IC50 with test system tumor cells from medulloblastoma developed from mice with deficiency in Patched1 gene for CCOC(=O)C(C)(C)Cc1c(SCC(C)(C)C)c2cc(C(C)C)ccc2n1Cc1ccc(Cl)cc1
A) > 20 µM

Q) Quote IC50 with test system tumor cells from medulloblastoma developed from mice with deficiency in Patched1 gene for Cn1nnnc1C(C)(C)Cc1c(SC(C)(C)C)c2cc(O)ccc2n1Cc1ccc(Cl)cc1
A) 10 to 20 µM

Q) Quote IC50 with test system tumor cells from medulloblastoma developed from mice with deficiency in Patched1 gene for COc1ccc2c(c1)c(C(=O)CC(C)(C)C)c(CC(C)(C)C(=O)O)n2Cc1ccc(Cl)cc1
A) > 20 µM
